# target: IGF1-receptor (Homo sapiens, UniProt P08069)
# Sequence (P08069 31-1367): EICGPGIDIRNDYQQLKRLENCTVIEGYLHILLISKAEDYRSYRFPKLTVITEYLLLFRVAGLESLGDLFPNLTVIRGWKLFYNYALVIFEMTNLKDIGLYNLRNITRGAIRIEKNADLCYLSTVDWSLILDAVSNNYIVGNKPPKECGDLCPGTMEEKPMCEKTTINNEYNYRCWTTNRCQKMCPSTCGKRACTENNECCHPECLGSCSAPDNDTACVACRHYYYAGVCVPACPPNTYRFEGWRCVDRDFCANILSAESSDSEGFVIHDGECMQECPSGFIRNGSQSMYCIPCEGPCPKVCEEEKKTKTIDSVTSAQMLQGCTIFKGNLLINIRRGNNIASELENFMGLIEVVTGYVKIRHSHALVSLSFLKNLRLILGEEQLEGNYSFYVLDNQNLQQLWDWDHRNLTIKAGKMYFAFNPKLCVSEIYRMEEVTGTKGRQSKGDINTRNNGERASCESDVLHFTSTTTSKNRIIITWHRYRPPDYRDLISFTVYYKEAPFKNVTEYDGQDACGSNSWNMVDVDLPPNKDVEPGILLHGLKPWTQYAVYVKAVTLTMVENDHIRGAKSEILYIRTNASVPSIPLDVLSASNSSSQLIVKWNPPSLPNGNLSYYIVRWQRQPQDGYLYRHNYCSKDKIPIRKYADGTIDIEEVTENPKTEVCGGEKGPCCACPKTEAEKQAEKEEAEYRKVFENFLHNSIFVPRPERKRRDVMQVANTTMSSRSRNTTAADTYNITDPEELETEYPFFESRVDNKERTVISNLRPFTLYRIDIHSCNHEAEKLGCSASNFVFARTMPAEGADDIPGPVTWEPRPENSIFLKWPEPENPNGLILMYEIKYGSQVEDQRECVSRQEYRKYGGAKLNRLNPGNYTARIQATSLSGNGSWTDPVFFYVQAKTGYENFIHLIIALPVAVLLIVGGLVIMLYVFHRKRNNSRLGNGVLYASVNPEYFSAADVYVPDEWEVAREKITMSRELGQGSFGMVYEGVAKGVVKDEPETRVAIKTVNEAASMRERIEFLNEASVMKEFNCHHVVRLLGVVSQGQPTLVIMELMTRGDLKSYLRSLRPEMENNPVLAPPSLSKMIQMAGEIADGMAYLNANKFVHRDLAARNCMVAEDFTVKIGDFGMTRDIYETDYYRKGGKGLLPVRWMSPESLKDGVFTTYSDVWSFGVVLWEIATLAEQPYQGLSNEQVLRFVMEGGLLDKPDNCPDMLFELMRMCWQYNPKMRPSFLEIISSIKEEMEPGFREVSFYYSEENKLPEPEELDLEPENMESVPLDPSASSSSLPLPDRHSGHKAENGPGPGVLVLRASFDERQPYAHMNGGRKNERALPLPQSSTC

given smiles: O=C(Nc1ccc(F)nc1)N1CCCCN1c1nc(Nc2cc(C3CC3)n[nH]2)c2cccn2n1
unit info: nM
IC50: 20
